Measured TGI, listed per entry for reference.
- Tested on: NCI-H226 lung
- EXPERIMENT_SUMMARY: NCI tumour cell line growth inhibition, 48 h

// known answers, use as guide
{"COMPOUND": "CC1=C(C#N)C(=O)N(/N=C/c2ccc(Cl)cc2)C(=O)/C1=c1\\o/c(=C2/C(=O)N(/N=C/c3ccc(Cl)cc3)C(=O)C(C#N)=C2C)c2nccnc12", "TGI": "> 100 µM"}
{"COMPOUND": "CCCOc1ccc(/C=C/C2=[N+](CCO)CCO2)cc1", "TGI": "> 100 µM"}
{"COMPOUND": "CC(=O)NNc1nc(C)c(C(/C=C/c2ccccc2O)=N/NC(=O)c2ccncc2)s1", "TGI": "> 100 µM"}
{"COMPOUND": "COc1cc2c(cc1OCCCCCN1CCN(c3cc(=O)oc4c(C)c(OC)ccc34)CC1)N=C[C@@H]1CCCN1C2=O", "TGI": "0.0368 µM"}
{"COMPOUND": "O=C(CSc1nnc(-c2ccc(N=Cc3ccc(Cl)cc3)cc2)o1)Nc1ccccc1", "TGI": "> 100 µM"}
{"COMPOUND": "O=C1OC2(c3ccccc31)c1cc(I)c(O)c(I)c1Oc1c2cc(I)c(O)c1I", "TGI": "> 100 µM"}

query: I would be grateful if you could share the reported TGI for `CC(=O)[CH-]C(C)=O.CC(=O)[CH-]C(C)=O.CC(=O)[CH-]C(C)=O.[Cl-].[Hf+4]` .
result: > 100 µM

query: Same again, this time with `N#C/C(=C\c1ccc(Cl)cc1)n1nnc2cc(F)c(F)cc21`
result: 4.54 µM

query: Same again, this time with `O=c1[nH]cnc2c1nnn2[C@@H]1O[C@H](CO)[C@@H](O)[C@H]1O`
result: > 100 µM

query: Same again, this time with CC/C(=C/OC)P1(=O)OC(C)(C)CN1C(C)(C)C (stereo not given)
result: > 100 µM

query: Same again, this time with `O=C(CSc1nc2sc3c(c2c(=O)n1-c1ccccc1)CCCCC3)N/N=C/c1ccc(F)cc1`
result: 4.84 µM

# credit: PubChem BioAssay (NCI)
